ASSAY SYSTEM: Recombinant Human Poly(ADP-Ribose) Polymerase (PARP) (Homo sapiens)
Construct: purchased Trevigen, Gaithersburg, Md; host or cells: E. coli
Sequence (P09874 whole entry): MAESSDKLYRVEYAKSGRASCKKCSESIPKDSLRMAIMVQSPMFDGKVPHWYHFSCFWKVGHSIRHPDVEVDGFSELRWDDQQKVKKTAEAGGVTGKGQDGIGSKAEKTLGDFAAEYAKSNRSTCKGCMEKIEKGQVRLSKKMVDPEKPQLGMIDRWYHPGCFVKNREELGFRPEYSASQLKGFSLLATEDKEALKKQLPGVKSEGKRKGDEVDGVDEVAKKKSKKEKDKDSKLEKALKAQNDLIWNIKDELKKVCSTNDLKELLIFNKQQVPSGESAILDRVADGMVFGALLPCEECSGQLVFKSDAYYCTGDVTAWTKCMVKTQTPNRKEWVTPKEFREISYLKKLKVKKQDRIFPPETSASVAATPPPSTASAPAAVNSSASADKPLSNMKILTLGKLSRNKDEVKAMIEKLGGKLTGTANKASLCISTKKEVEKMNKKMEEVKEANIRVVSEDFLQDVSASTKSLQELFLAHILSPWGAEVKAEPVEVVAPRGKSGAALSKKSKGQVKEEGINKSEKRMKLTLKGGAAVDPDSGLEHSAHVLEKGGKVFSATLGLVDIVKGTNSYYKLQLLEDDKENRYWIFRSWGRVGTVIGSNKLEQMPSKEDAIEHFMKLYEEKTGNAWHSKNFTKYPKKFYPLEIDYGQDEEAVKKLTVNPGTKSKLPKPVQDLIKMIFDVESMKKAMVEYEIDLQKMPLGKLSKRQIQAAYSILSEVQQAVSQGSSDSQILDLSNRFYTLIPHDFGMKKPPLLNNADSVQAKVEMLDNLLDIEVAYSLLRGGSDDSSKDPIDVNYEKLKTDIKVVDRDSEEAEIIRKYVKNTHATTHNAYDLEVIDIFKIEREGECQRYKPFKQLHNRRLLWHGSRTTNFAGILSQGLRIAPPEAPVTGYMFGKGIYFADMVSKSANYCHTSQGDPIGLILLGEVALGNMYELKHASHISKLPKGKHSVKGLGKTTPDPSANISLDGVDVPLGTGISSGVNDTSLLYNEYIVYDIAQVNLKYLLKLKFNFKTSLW
METHOD NOTES: PARP1 inhibition assay ([3H]-NAD+, biotinylated histone H1, FlashPlate/SPA)
Assay type: biochemical
RUN PARAMETERS: from inhibition curves at various substrate concentrations
pKi: −log10 of the molar value.
Param threshold (8) applies to pKi; output true when value >= threshold, false when value < threshold.

Some solved entries appear below for comparison.
NC(=O)c1cccc2[nH]c([C@@H]3CCCN3C3CCC3)nc12	false
CC1(c2nc3c(C(N)=O)cccc3[nH]2)CN(C2CCCCC2)C1	true

# ---- query compound ----
In: Hello, I need to know if CC1(c2nc3c(C(N)=O)cccc3[nH]2)CN(C2CCCC2)C1 has measured pKi not below 8. Thanks!
Out: true
